# assayed.system: Human Dopamine D3 receptor (Homo sapiens, UniProt P35462)
# Construct: expressed in transfected cells; host or cells: CHO cells
# Sequence (P35462 whole entry): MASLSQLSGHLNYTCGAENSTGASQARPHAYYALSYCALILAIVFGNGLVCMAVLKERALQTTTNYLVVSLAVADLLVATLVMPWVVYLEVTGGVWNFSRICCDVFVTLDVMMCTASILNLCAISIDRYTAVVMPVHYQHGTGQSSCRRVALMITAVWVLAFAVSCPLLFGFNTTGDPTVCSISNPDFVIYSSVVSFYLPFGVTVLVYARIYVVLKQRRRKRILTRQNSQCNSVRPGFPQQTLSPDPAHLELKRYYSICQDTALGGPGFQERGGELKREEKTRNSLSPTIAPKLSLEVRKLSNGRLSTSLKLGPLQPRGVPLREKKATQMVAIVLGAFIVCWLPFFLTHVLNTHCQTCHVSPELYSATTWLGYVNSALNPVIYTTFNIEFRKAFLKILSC
# protocol.description: Binding experiment for dopamine D3 receptor ([125I]Iodosulpride)
# assay.context: transfected CHO cell membranes
Entries and their pIC50 D3 values follow.
Write no unit; give the number alone.

Illustrative cases are given below, each with its answer.
>>> numeric_readout("COc1cc2c(cc1OC)C1=NOC(CN3CC=C(c4c[nH]c5ccc(Br)cc45)CC3)C1CO2 (racemic)")
6.5
>>> numeric_readout("COc1cc2c(cc1OC)C1=NOC(CN3CC=C(c4c[nH]c5ccc(F)cc45)CC3)C1CO2 (single isomer, unassigned) [Compound 3]")
7.0

Now for the compound whose pIC50 D3 we want.
Give the measured pIC50 D3 of COc1cc2c(cc1OC)C1=NOC(CN3CCC(c4c[nH]c5ccc(F)cc45)CC3)C1CO2 (single isomer, unassigned) [Compound 11] .
7.2
